Biological target: Voltage-gated potassium channel subunit beta-2 (Rattus norvegicus) (UniProt P62483)
Sequence (P62483 whole entry, looked up): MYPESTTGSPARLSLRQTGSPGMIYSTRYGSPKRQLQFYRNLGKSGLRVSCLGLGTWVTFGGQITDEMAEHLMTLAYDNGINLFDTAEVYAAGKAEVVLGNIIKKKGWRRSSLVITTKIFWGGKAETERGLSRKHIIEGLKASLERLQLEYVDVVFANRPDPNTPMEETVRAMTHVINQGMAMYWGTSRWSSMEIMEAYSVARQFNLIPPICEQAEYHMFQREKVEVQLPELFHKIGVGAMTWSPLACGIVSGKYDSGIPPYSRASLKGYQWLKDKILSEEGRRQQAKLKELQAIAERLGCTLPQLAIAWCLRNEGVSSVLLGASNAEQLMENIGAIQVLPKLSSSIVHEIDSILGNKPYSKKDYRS
Assay: KvBeta positive modulators, primary screen, biochemical, NADPH fluorescence (AID 623);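 further: fluorescence intensity change per second fitted from 20 to 320 s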
Conditions: Recombinant KvBeta, NADPH fluorescence decrease slope, 10 min; at 10 µM; hits give low values
Kindly state NADPH fluorescence slope for each of the entries shown.
Numbers only.

1) CC(=O)N1CCN(C2c3cccc4cccc(c34)C2NS(=O)(=O)c2ccccc2)CC1 (stereo unspecified) = -4.4e-05
2) O=C(NCCN1CCOCC1)NC1(C(F)(F)F)Oc2ccc(Cl)cc2O1 (stereo unspecified) = -5.6e-05
3) COCCCNC(=O)c1ccccc1NS(=O)(=O)c1ccc(C)cc1 = -1.5e-05
4) CCC(Oc1ccccc1)C(=O)Nc1ccccc1OC (stereo unspecified) = -1.9e-05
5) O=C(c1ccc(=O)oc1)N1CCN(C(c2ccccc2)c2ccccc2)CC1 = -7.6e-05

Each of the following entries comes with a recorded value; kindly state NADPH fluorescence slope for each.
1. CCOC(=O)c1c(C)[nH]c(C(=O)Cn2c(=O)c3c(ncn3CC)n(Cc3ccccc3)c2=O)c1C
2. CCCC1Cc2c(sc3nc(SC)nc(N)c23)CO1 (stereo unspecified)
3. Cn1cnc(S(=O)(=O)NCc2cccs2)c1
4. Cc1nn(C)cc1/C=N/n1nnnc1N
5. Cc1cc(=O)oc2c1c(C)nn2-c1ccc(C(=O)OC(C)C)cc1
6. COc1cc(OC)cc(-c2nc(N)n[nH]2)c1

(A)
["-3.2e-05", "-4.4e-05", "3.3e-05", "-3.8e-05", "-1.2e-05", "-5.5e-05"]
